- Test system: Saccharomyces cerevisiae;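 note: PSI is a weighted mean of sequencing reads over stability bins, variants kept only with over 10 reads, mCherry proximal and sfGFP distal, peptide attached via GGGS linker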
- Procedure text: protein stability index of tFT-peptide fusion (C-terminal peptide) (PSI (0-1 scale)); higher = more stable (slower turnover)
- Measurement conditions: genetic background: wild type; temperature: 30 C
Label rule met when protein stability index is at or above 0.7; anything below gets rule not met.

// below: answered sequences
Residue codes | Category label
LPLPVPPPPLPS | rule not met
RTLSSFSPGYLF | rule met
LPRPPPPPPPPP | rule met
PQPPLYPPPSLP | rule not met

Q: Entry LIPALPPPLPPP : is its protein stability index no less than 0.7?
A: rule not met

Q: Please indicate if the recorded protein stability index for FYPHFCAHTRPH meets or exceeds 0.7.
A: rule met

Q: Decide: is the reported value of protein stability index for SDLKARYHCGRD equal to or greater than 0.7?
A: rule not met

Q: Check this sequence for protein stability index at or above 0.7: GIRRSLALSAIS
A: rule not met

Q: Hello, I need to know if WGRCVRGGRPWG has measured protein stability index not below 0.7. Thanks!
A: rule not met

Q: Quick check: does VSVVVGLLFVGF have protein stability index greater than or equal to 0.7?
A: rule not met

Q: Does FSSFCFFLPPLN have a reported protein stability index of at least 0.7?
A: rule not met

Q: Check this sequence for protein stability index at or above 0.7: VPVITLGSRISG
A: rule not met

Q: Item VGPFSSSRIGTS with protein stability index of 0.7 or above?
A: rule not met

Q: Does protein stability index meet or surpass 0.7 for LGGHLFPLGPRR ?
A: rule not met

Q: Exam item: decide whether the reported protein stability index for PPLLPPPLTPPD is at least 0.7.
A: rule not met

Q: Form field: protein stability index at least 0.7? Entry: PLPPPPALLFPP
A: rule met

Q: Is protein stability index at least 0.7? Consider PPRFLPFPPLPL
A: rule met

Q: Form field: protein stability index at least 0.7? Entry: SFLSPPSPPHSP
A: rule not met

Q: Exam item: decide whether the reported protein stability index for VKKVSSVGGREG is at least 0.7.
A: rule not met

Q: Decide: protein stability index of VRGLGFVSWFFL >= 0.7?
A: rule not met

Q: Threshold query (protein stability index >= 0.7) on LLRPLRRLDVSW
A: rule not met

Q: Is the recorded value of protein stability index equal to or greater than 0.7 for this sequence? NYKVRKQKVDRN
A: rule not met

Q: Is the recorded value of protein stability index equal to or greater than 0.7 for this sequence? KCKGTCESRRGI
A: rule met

Q: Tell me whether protein stability index is at least 0.7 here: PHALSSFLSLFL
A: rule met

Q: Please tell me: is the sequence LLFTFSLSFFFR at or over 0.7 in terms of protein stability index?
A: rule not met

Q: Form field: protein stability index at least 0.7? Entry: FLFFLLLYVFFC
A: rule not met

Q: Reported protein stability index at or above 0.7? FPAPSPPFRLPP
A: rule met

Q: Does IERRCGRCMCFM have a reported protein stability index of at least 0.7?
A: rule met

Source: the supplement of paper PMC10724198
